- Assay procedure: protection of differentiated C2C12 cells from simvastatin – single point, plate reader, primary screen (AID 602340);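 further: myotubes were challenged with 10 µM simvastatin during compound exposure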
- Condition description: C2C12 myotubes + simvastatin, ATP luminescence, 48 h; at 7.49 µM; active compounds read high; scaled: DMSO 0, geranylgeraniol control 100
The whole screen tested about 330,000 compounds, of which about 2,600 (0.79%) were called active. Shown is part of a subset that was picked to be rich in actives.
compounds and their reported rescue of ATP level
Endpoint label: rescue of ATP level (%)

[[record]]
compound = "Cc1ccc(S(=O)(=O)Nc2ccc3c(c2)CC(=O)N([C@H](C)CO)C[C@@H](C)[C@H](CN(C)Cc2ccc(C(F)(F)F)cc2)O3)cc1"
units_symbol = "%"
experimental_result = 110

[[record]]
compound = "O=C(CCC1CCCN(C(=O)c2ccc(F)c(F)c2)C1)N1CCN(c2ccccn2)CC1 (stereo not given)"
units_symbol = "%"
experimental_result = -0.349

[[record]]
compound = "CCN(CC(=O)NC(=O)NCc1ccccc1)Cc1nc2ccccc2c(=O)[nH]1"
units_symbol = "%"
experimental_result = -7.59

[[record]]
compound = "O=C(c1ccc2c(c1)C(=O)N(c1ccc(Cl)cc1)C2=O)N1CCN(c2ccccn2)CC1"
units_symbol = "%"
experimental_result = 135

[[record]]
compound = "O=C(CN1CCOCC1)N[C@@H]1CC[C@H](CCNS(=O)(=O)c2ccccc2F)O[C@H]1CO"
units_symbol = "%"
experimental_result = 14.2

[[record]]
compound = "CCCNC(=O)N(C)C[C@H]1Oc2cc(C#CC(C)(C)O)ccc2S(=O)(=O)N([C@H](C)CO)C[C@@H]1C"
units_symbol = "%"
experimental_result = 1.69

[[record]]
compound = "CCOc1ccc(Nc2nc(Cc3nnc(SCC(=O)c4ccc(C)cc4)o3)cs2)cc1"
units_symbol = "%"
experimental_result = 76.7

[[record]]
compound = "CCOc1ccc(Nc2nc(Cc3nnc(SCC(=O)NC4CCCC4)n3C)cs2)cc1"
units_symbol = "%"
experimental_result = 33.9

[[record]]
compound = "C[C@H]1CN([C@@H](C)CO)S(=O)(=O)c2ccc(C#CC3CCCC3)cc2O[C@@H]1CN(C)C(=O)c1cccc(F)c1"
units_symbol = "%"
experimental_result = -41

[[record]]
compound = "O=C(O)CC(c1ccccc1)n1cnnn1 (stereo not given)"
units_symbol = "%"
experimental_result = 86


* * *

- Assay procedure: protection of differentiated C2C12 cells from simvastatin – single point, plate reader, primary screen (AID 602340);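 further: myotubes were challenged with 10 µM simvastatin during compound exposure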
- Condition description: C2C12 myotubes + simvastatin, ATP luminescence, 48 h; at 7.49 µM; scaled: DMSO 0, geranylgeraniol control 100
The campaign covered roughly 330,000 compounds. About 2,600 (0.79%) were called active.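 The calls were made as follows: active = mean ATP rescue above about 67%, or every replicate alone reaching that limit (limit read from the data, passing the limit was not always enough); inconclusive = no clear call, values can overlap the other calls; inactive = mean under the limit and some replicate under it.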 The sample holds actives, similar compounds and a random draw of the others, so the mix is not that of the screen.
Outcomes: active, inactive

[[record]]
compound = "Cc1ccc(C(=O)N2CCCC2)c(F)c1F"
cat = "inactive"

[[record]]
compound = "CC(=O)c1c(C)n(-c2ccc(N(C)C)cc2)c2ccc(OCC(N)=O)cc12"
cat = "active"

[[record]]
compound = "CC(C)NC(=O)N1[C@H](CO)[C@@H]2c3ccccc3N(C(=O)c3ccccc3F)C[C@@H]21"
cat = "inactive"

[[record]]
compound = "Cc1ccc(C(=O)NC23CC4CC(CC(C4)C2)C3)c(Cl)c1"
cat = "inactive"

[[record]]
compound = "CO[C@H]1CN(C)C(=O)c2ccc(NC(=O)C3CC3)cc2OC[C@H](C)N(CCc2ccccc2)C[C@H]1C"
cat = "inactive"

[[record]]
compound = "CCOc1ccccc1C(=O)NC1CC2CCCC(C1)N2Cc1ccccc1 (configuration not stated)"
cat = "active"

[[record]]
compound = "COCC#Cc1ccc2c(c1)O[C@H](CN(C)Cc1ccc3c(c1)OCO3)[C@H](C)CN([C@H](C)CO)S2(=O)=O"
cat = "inactive"

[[record]]
compound = "O=C(Nc1ccccc1)N1C[C@H]2[C@@H](c3ccccc31)[C@H](CO)N2Cc1ccc(F)cc1"
cat = "inactive"

[[record]]
compound = "Cc1ccc(S(=O)(=O)N2[C@@H](c3ccccc3F)C(C(=O)O)=CC[C@H]2c2ccc(Cl)cc2)cc1"
cat = "inactive"

[[record]]
compound = "CO[C@H]1CN(C)C(=O)c2cc(NC(=O)C3CC3)ccc2OC[C@H](C)N(Cc2ccccc2)C[C@H]1C"
cat = "inactive"

[[record]]
compound = "CCC(=O)Nc1ccc2c(c1)OC[C@H](C)N(CC1CCCCC1)C[C@@H](C)[C@H](OC)CN(C)C2=O"
cat = "inactive"

[[record]]
compound = "CC1(C(=O)O)CCCN(C(=O)/C=C/c2ccccc2)C1 (configuration not stated)"
cat = "inactive"

[[record]]
compound = "Cc1[nH]c(=O)c(C(=O)/C=C/c2ccccc2)c2c1CCCC2"
cat = "active"

[[record]]
compound = "CCc1ccc(N2CC(C(=O)NC3=NCCS3)CC2=O)cc1 (configuration not stated)"
cat = "active"

[[record]]
compound = "Cc1ccccc1S(=O)(=O)Nc1ccc2c(c1)C(=O)N(C)[C@H]1CC[C@@H](CC(=O)O)O[C@H]1CO2"
cat = "inactive"

[[record]]
compound = "O=C(NCC[C@H]1CC[C@H](NS(=O)(=O)c2cccc(F)c2)[C@H](CO)O1)C1CCCCC1"
cat = "inactive"

[[record]]
compound = "CO[C@@H]1CN(C)C(=O)c2cc(NC(=O)Nc3cc(F)ccc3F)ccc2OC[C@@H](C)N(C)C[C@H]1C"
cat = "inactive"

[[record]]
compound = "CS(=O)(=O)c1ccc(C(=O)NNC(=O)c2cccs2)cc1"
cat = "inactive"

[[record]]
compound = "O=S1(=O)CCN2C(=N1)SC1=C2CCN(Cc2ccccc2)C1"
cat = "active"

[[record]]
compound = "CC(=O)C1=C(O)C(=O)N(c2ccc(Br)cc2)C1c1ccc([N+](=O)[O-])cc1 (configuration not stated)"
cat = "inactive"

[[record]]
compound = "Cc1ccc2nc(SCC(=O)NC3CCCC3)[nH]c2c1"
cat = "inactive"

[[record]]
compound = "CCc1ccc(N2CC(C(=O)Nc3ccc(S(=O)(=O)Nc4nccs4)cc3)CC2=O)cc1 (configuration not stated)"
cat = "inactive"

[[record]]
compound = "C/C(=N\\NC(=O)c1nc(C)cc(C)n1)c1ccccc1"
cat = "active"

[[record]]
compound = "CC(=O)C1=C(O)C(=O)N(c2ccc(S(N)(=O)=O)cc2)C1c1ccccc1F (configuration not stated)"
cat = "active"

[[record]]
compound = "C/C(=N/NC(=O)c1cc(Cl)ccc1O)C12CC3CC(CC(C3)C1)C2"
cat = "active"

[[record]]
compound = "C/C(=C\\c1ccccc1)C1NC(=O)c2c(sc3c2CCCC3)N1 (configuration not stated)"
cat = "inactive"

[[record]]
compound = "COc1ccc2nc(N3CCN(C(=O)c4ccc([N+](=O)[O-])o4)CC3)sc2c1"
cat = "active"

[[record]]
compound = "Cc1ccc2nc(N3CCN(C(=O)c4ccco4)CC3)sc2c1"
cat = "inactive"

[[record]]
compound = "Cc1c(Br)cc(C(=O)N2CCCCCC2)c(C)c1C"
cat = "active"

[[record]]
compound = "COCCn1c(CN(Cc2ccccc2)Cc2ccccc2)nc2c1c(=O)n(C)c(=O)n2C"
cat = "inactive"

[[record]]
compound = "CCn1c(SCCC(C)C)nnc1-c1c[nH]c2ccccc12"
cat = "inactive"

[[record]]
compound = "CNC[C@H]1Oc2cc(C#CCOC)ccc2S(=O)(=O)N([C@@H](C)CO)C[C@H]1C"
cat = "inactive"

